Test system: human epidermal growth factor receptor (EGFR)
Experiment: Biacore SPR binding kinetics of anti-EGFR scFv-Fc clones with or without 10 µM MTX
Conditions: 0 µM MTX, 37° C., pH 7.4, scFv-Fc
Entries and their koff, kinetics toward antigen with 0 µM MTX
I only need the number, in s⁻¹, no unit after it.

molecule	experimental result
P14_E03: anti-EGFR clone with conditional affinity; VH SEQ ID NO: 125, VL SEQ ID NO: 126 (antibody, V domains shown, Synthetic Antibody) VH: QVQLVESGGGLVQAGGSLRLSCAASRRSSRSWAMHWVRQAPGKGLEWVAVISYDGRLKYYADSVKGRFTISRDNAEYLVYLQMNSLRAEDTAVYYCAAAPRVDWSDVSSGIDYWGQGTLVTVSS VL: QSVLTQPPSASGTPGQRVTISCSGSISNIGTNNVYWYQQLPGTAPKLLIYRNNQRPSGVPDRFSGSKSGTSASLAISGLRSEDEADYYCSAWDDSLSGVVFGTGTKLTVL	0.00067
P07_H08: anti-EGFR clone with conditional affinity; VH SEQ ID NO: 121, VL SEQ ID NO: 122; also as scFv in CAR (antibody, V domains shown, Synthetic Antibody, also as scFv in CAR) VH: QVQLVESGGGLVQAGGSLRLSCAASRRSSRSWAMHWVRQAPGKGLEWVAVISYDGRLKYYADSVKGRFTISRDNAEYLVYLQMNSLRAEDTAVYYCAAGFDWGWDSSDIYSAMDYWGQGTLVTVSS VL: DIQMTQSPSSLSASVGDRVTITCRASQNIGRYLHWYQQKPGKAPKLLIYSASNLQSGVPSRFSGSGSGTDFTLTISSLQPEDFATYYCQQSYSSPFTFGQGTKVEIK	0.27

Proceeding to the next molecule to report its koff, kinetics toward antigen with 0 µM MTX.
q: Which koff, kinetics toward antigen with 0 µM MTX value belongs to P05_A11: anti-EGFR clone with conditional affinity; VH SEQ ID NO: 133, VL SEQ ID NO: 134; also as scFv in CAR (antibody, V domains shown, Synthetic Antibody, also as scFv in CAR) VH: QVQLVESGGGLVQAGGSLRLSCAASRRSSRSWAMHWVRQAPGKGLEWVAVISYDGRLKYYADSVKGRFTISRDNAEYLVYLQMNSLRAEDTAVYYCAASDDADIFDDYSYGAMDYWGQGTLVTVSS VL: QSVLTQPPSASGTPGQRVTISCSGSSSNIGRNYVYWYQQLPGTAPKLLIYMTSQRPSGVPDRFSGSKSGTSASLAISGLRSEDEADYYCASWDDNLRAWVFGTGTKLTVL ?
a: 0.028
